Source: the RNAGym collection of RNA variant scans (doi:10.7554/elife.80360)

B1: CPEB3 Ribozyme (parent)
chain: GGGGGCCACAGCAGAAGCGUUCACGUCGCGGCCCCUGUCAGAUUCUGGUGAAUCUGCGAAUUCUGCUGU

Variants of: B1
Assay: self-cleavage, relative activity (ratio to wild type); higher = more cleavage; co-transcriptional
Classes (self-cleavage): low (below 0.2), intermediate (0.2 to below 0.7), high (0.7 or more)

> print(dat)
    sequence.variant    class.name
 1         A23C U38G  intermediate
 2         A13C U64A          high
 3         C18G G37U           low
 4         G11A C35A  intermediate
 5          C7A G14C           low
 6          G2U U43C           low
 7         C29U U55A           low
 8         U21C U26G  intermediate
 9         G47U U62G          high
10         G25A C33U  intermediate
11         C29U C57U  intermediate
12         G14C U46G  intermediate
13          G4A U26C          high
14         C57G U61G  intermediate
15         G56A A60G          high
16          G2C U43C           low
17         C57U C63G  intermediate
18         U21A A59G          high
19         C12U U49G          high
20         G48C C66A          high
21         G25A U67C           low
